# TESTED_TARGET: Cystathionine gamma-lyase (Homo sapiens, UniProt P32929)
# Sequence (P32929 whole entry): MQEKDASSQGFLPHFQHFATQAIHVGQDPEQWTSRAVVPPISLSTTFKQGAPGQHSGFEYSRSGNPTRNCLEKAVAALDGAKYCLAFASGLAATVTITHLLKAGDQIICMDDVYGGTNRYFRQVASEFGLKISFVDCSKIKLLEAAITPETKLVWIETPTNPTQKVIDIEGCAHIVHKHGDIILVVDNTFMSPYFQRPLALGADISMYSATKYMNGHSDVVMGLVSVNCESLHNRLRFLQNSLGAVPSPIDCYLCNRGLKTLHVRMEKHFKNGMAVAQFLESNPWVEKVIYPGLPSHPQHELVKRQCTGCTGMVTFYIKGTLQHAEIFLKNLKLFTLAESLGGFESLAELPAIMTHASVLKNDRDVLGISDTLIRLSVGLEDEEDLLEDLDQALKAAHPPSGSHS
# METHOD_NOTES: Inhibition of cystathionine gamma-lyase (unknown origin) assessed as reduction in cysteine formation from CPM using L-cystathionine pre-incubated for 15 min followed by L-cystathionine and CPM addition and measured after 7 mins by fluorescence-based primary assay
pIC50: −log10 of the molar value.
PROPERTY_NAME: pIC50

Sample answers from the record:
[
  {
    "COMPOUND": "Cc1ccc(NC(=O)CSC(=S)N/N=C/c2cccc(Br)n2)cc1",
    "pIC50": 5.00
  },
  {
    "COMPOUND": "CSC(=S)N/N=C/c1nn(C)cc1Cl",
    "pIC50": 5.22
  },
  {
    "COMPOUND": "CSC(=S)N/N=C/c1cnccn1",
    "pIC50": 4.82
  },
  {
    "COMPOUND": "CC(C)(C)c1ccc(NC(=O)CSC(=S)N/N=C/c2ccncc2)cc1",
    "pIC50": 4.40
  },
  {
    "COMPOUND": "CSC(=S)N/N=C/c1cc[nH]n1",
    "pIC50": 4.82
  }
]

I. CSC(=S)N/N=C/c1ncccc1C
II. CC(C)(C)c1ccc(NC(=O)CSC(=S)N/N=C/c2ncccc2F)cc1
III. CSC(=S)N/N=C/c1ccncc1
Sort the compounds on pIC50; start with the lowest figure. Give the labels in the order specified.
III, I, II
(III: 4.40, I: 5.22, II: 5.70)

====

# TESTED_TARGET: Cystathionine gamma-lyase (Homo sapiens)
# METHOD_NOTES: Inhibition of cystathionine gamma-lyase (unknown origin) assessed as reduction in cysteine formation from CPM using L-cystathionine pre-incubated for 15 min followed by L-cystathionine and CPM addition and measured after 7 mins by fluorescence-based primary assay
PROPERTY_NAME: IC50 (µM)

Sample answers from the record:
[
  {
    "MOLECULAR_STRING": "Cc1ccc(NC(=O)CSC(=S)N/N=C/c2nn(C)cc2Cl)cc1",
    "PROPERTY_NAME": "IC50",
    "NUMBER": 3
  },
  {
    "MOLECULAR_STRING": "Cc1cccc(/C=N/NC(=S)SCC(=O)Nc2ccc(C(C)(C)C)cc2)n1",
    "PROPERTY_NAME": "IC50",
    "NUMBER": 6
  },
  {
    "MOLECULAR_STRING": "O=C(CSC(=S)N/N=C/c1ccccn1)Nc1ccccc1",
    "PROPERTY_NAME": "IC50",
    "NUMBER": 6
  }
]

I. Cn1cc(Cl)c(/C=N/NC(=S)SCC(=O)Nc2ccc(C(C)(C)C)cc2)n1
II. Cc1ccc(NC(=O)CSC(=S)N/N=C/c2cccnc2)cc1
III. Cc1ccc(NC(=O)CSC(=S)N/N=C/c2ncccc2C)cc1
Put the items in sequence by IC50, from largest down. Give the labels in the order specified.
II, I, III
(II: 25 µM, I: 6 µM, III: 2.5 µM)

====

# TESTED_TARGET: Cystathionine gamma-lyase (Homo sapiens)
# METHOD_NOTES: Inhibition of cystathionine gamma-lyase (unknown origin) assessed as reduction in cysteine formation from CPM using L-cystathionine pre-incubated for 15 min followed by L-cystathionine and CPM addition and measured after 7 mins by fluorescence-based primary assay
pIC50: −log10 of the molar value.
PROPERTY_NAME: pIC50

A. CSC(=S)N/N=C/c1cscn1
B. COc1ccc(NC(=O)CSC(=S)N/N=C/c2ncccc2F)cc1
Hi there, can you help? I need to know whether A or B has lower measured pIC50. Lab note: record the label of whichever item you select.
A

P. CSC(=S)N/N=C/c1cccc(C)n1
Q. COc1ccc(NC(=O)CSC(=S)N/N=C/c2cccc(C)n2)cc1
R. CC(C)(C)c1ccc(NC(=O)CSC(=S)N/N=C/c2ccccn2)cc1
S. CSC(=S)N/N=C/c1cccc(Br)n1
T. CSC(=S)N/N=C/c1cccnc1
Sort the molecules on pIC50; start with the lowest figure. Give the labels in the order specified.
T, S, P, R, Q
(T: 4.30, S: 4.92, P: 5.30, R: 5.52, Q: 5.72)

P. O=C(CSC(=S)N/N=C/c1ncccc1F)Nc1ccc(C(F)(F)F)cc1
Q. Cc1ccc(NC(=O)CSC(=S)N/N=C/c2ccccn2)cc1
R. CC(C)(C)c1ccc(NC(=O)CSC(=S)N/N=C/c2cccnc2)cc1
Put the items in sequence by pIC50, from largest down. Give the labels in the order specified.
Q, P, R

P. CSC(=S)N/N=C/c1ncccc1F
Q. COc1ccc(NC(=O)CSC(=S)N/N=C/c2nn(C)cc2Cl)cc1
R. CSC(=S)N/N=C/c1ccc(Br)cn1
Sort the molecules on pIC50; start with the lowest figure. Give the labels in the order specified.
R, P, Q

a. CSC(=S)N/N=C/c1ccccn1
b. COc1ccc(NC(=O)CSC(=S)N/N=C/c2ccccn2)cc1
# returns the entry with the larger pIC50; inputs a and b Lab note: record the label of whichever item you select.
b

P. Cc1ccc(NC(=O)CSC(=S)N/N=C/c2cccc(C)n2)cc1
Q. CC(C)(C)c1ccc(NC(=O)CSC(=S)N/N=C/c2cccc(Br)n2)cc1
Hi there, can you help? I need to know whether P or Q has lower measured pIC50. Lab note: record the label of whichever item you select.
Q
(Q: 4.82, P: 5.46)

Taken from ChEMBL document CHEMBL4130591.
